Origin of values: patent US5665745A

# tested.target: muscarinic receptors (M1 -site, pirenzepine sensitive site) (Rattus norvegicus)
# Construct: from tissue; host or cells: cerebral cortex membranes of male Wistar rats
# Sequence (P08482 whole entry): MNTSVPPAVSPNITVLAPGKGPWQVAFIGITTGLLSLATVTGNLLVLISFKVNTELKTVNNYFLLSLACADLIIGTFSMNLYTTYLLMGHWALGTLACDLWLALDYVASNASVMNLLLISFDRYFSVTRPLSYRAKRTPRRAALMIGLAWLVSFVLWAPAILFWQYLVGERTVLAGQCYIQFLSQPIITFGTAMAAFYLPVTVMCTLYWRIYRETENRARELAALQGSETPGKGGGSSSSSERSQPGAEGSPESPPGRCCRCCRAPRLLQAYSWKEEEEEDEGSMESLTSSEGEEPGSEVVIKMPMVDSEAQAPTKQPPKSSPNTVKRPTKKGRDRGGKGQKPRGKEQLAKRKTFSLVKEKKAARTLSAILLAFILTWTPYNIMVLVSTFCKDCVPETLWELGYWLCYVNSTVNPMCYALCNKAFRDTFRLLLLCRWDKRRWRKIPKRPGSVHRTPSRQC
# assay.method.text: inhibition of ^3 HPRZ (pirenzepine, [N-methyl-^3 H]) binding to rat cerebral cortex membranes
# Parameters: species or system rat (male Wistar
Define the label as Condition met when IC50 is strictly less than 40 nM and as Condition not met in all remaining cases.

c1ccc(SCCOc2nsnc2OC2CN3CCC2CC3)cc1 (racemic) [Compound 126] ... Condition not met
C=CCCCOc1nsnc1OC1CN2CCC1CC2 (racemic) [Compound 122] ... Condition not met
Clc1nsnc1O[C@H]1CN2CCC[C@@H]1C2 (relative stereo) [Compound 48] ... Condition met
CC(C)(C)CCSc1nsnc1OC1CN2CCC1CC2 (racemic) [Compound 18] ... Condition not met

Now consider a different compound.
In: Hi there! Is IC50 for C=CCCOc1nsnc1OC1CN2CCC1CC2 (racemic) [Compound 108] below 40 nM, do you know?
Out: Condition not met

---

# tested.target: muscarinic receptors (M1 -site, pirenzepine sensitive site) (Rattus norvegicus)
# Construct: from tissue; host or cells: cerebral cortex membranes of male Wistar rats
# assay.method.text: inhibition of ^3 HPRZ (pirenzepine, [N-methyl-^3 H]) binding to rat cerebral cortex membranes
# Parameters: species or system rat (male Wistar
# condition.info: ^3 HPRZ 1.0 nM, rat cortex, 60 min. at 20° C.; read-out: ^3 HPRZ IC50 (head from b208 on: Pir IC-50)
result.type: IC50 (nM)
Write the number in nM without appending the unit.

Worked examples follow.
CCCCCSc1nsnc1O[C@H]1CN2CCC[C@H]1C2 (relative stereo) ... 18
CCCCS(=O)(=O)c1nsnc1OC1CN2CCC1CC2 (racemic) ... 187
COc1ccc(CCCOc2nsnc2OC2CN3CCC2CC3)cn1 (racemic) ... 124

In: Please give the measured IC50 for this compound: CCCCc1ccc(COc2nsnc2O[C@@H]2CN3CCC[C@H]2C3)cc1 (relative stereo)
Out: 21

In: Give its IC50 value. Item: CCCCCCOc1nsnc1O[C@@H]1CN2CCC[C@H]1C2 (relative stereo)
Out: 6.42

In: Need IC50 of Cc1ncsc1CCOc1nsnc1O[C@@H]1CN2CCC[C@H]1C2 (relative stereo) , thanks.
Out: 27

In: Recorded IC50 for Fc1ccc(COc2nsnc2O[C@@H]2CN3CCC[C@H]2C3)c(F)c1 (relative stereo) , please?
Out: 7.5

In: Look up IC50 for this compound: c1ccc(OCCSc2nsnc2O[C@@H]2CN3CCC[C@H]2C3)cc1 (relative stereo)
Out: 0.6

In: Dear colleague, I am looking for the recorded IC50 of the following compound: CC(Oc1nsnc1OC1CN2CCCC1C2)C1CC1 (mixture of isomers)
Out: 5.4

In: Given CCCCSc1nsnc1O[C@H]1CN2CCC[C@@H]1C2 [Compound 138] , state its recorded IC50.
Out: 0.47

---

# tested.target: muscarinic acetylcholine receptors
# assay.method.text: inhibition of specific binding of ^3 H-Oxotremorine-M (^3 H-Oxo)
# condition.info: ^3 H-Oxotremorine 1.0 nM, rat cortex, 30 min. at 25° C.
So basically, if IC50 comes in under 8 nM it's Fulfilled, and if it's 8 nM or more it's Not fulfilled.

FC(F)(F)c1ccc(OC(CCSc2nsnc2OC2CN3CCC2CC3)c2ccccc2)cc1 (racemic) ... Not fulfilled
FCCCOc1nsnc1O[C@@H]1CN2CCC[C@H]1C2 (relative stereo) ... Fulfilled
Fc1ccc(COc2nsnc2O[C@@H]2CN3CCC[C@H]2C3)c(F)c1 (relative stereo) ... Fulfilled
c1ccc2c(c1)Sc1ccccc1N2CCCSc1nsnc1OC1CN2CCC1CC2 (racemic) ... Not fulfilled
c1csc(SCCSc2nsnc2OC2CN3CCC2CC3)c1 (racemic) ... Fulfilled
CCCCOc1nsnc1OC1CC2CCC(C1)N2C (centres unmarked) ... Not fulfilled
COCCOc1nsnc1O[C@@H]1CN2CCC[C@H]1C2 (relative stereo) ... Fulfilled
Fc1ccc(OC(CCSc2nsnc2OC2CN3CCC2CC3)c2ccc(F)cc2)cc1 (racemic) ... Not fulfilled
CCCCSc1nsnc1O[C@@H]1CCC[C@H]1N(C)C (racemic) ... Not fulfilled
O=C1SCCN1CCCSc1nsnc1OC1CN2CCC1CC2 (racemic) ... Fulfilled

In: A record lists C/C=C\COc1nsnc1OC1CN2CCC1CC2 (mixture of isomers) . Is its IC50 below 8 nM?
Out: Not fulfilled

In: Below 8 nM on IC50? Entry Clc1nsnc1O[C@H]1CN2CCC[C@@H]1C2 (relative stereo)
Out: Not fulfilled

In: IC50 under 8 nM? Item: CSCCc1nsnc1OC1CN2CCC1CC2 (racemic)
Out: Not fulfilled

In: hey, is IC50 for CC(C)=CCOc1nsnc1O[C@@H]1CN2CCC[C@H]1C2 (relative stereo) lower than 8 nM or not?
Out: Fulfilled

In: Hi there! Is IC50 for FC(F)(F)c1ccc(SCCSc2nsnc2OC2CN3CCC2CC3)s1 (racemic) below 8 nM, do you know?
Out: Not fulfilled

In: Lab note: IC50 threshold 8 nM. Does this compound come in strictly under it? c1nsnc1OC1CN2CCC1CC2 (racemic)
Out: Not fulfilled

In: Decide: IC50 of c1csc(CCCSc2nsnc2OC2CN3CCC2CC3)c1 (racemic) strictly below 8 nM?
Out: Fulfilled

In: Bench note: check whether C1CCC(CCOc2nsnc2O[C@@H]2CN3CCC[C@H]2C3)CC1 (relative stereo) shows IC50 below 8 nM
Out: Not fulfilled

In: Quick check: does CCOc1nsnc1OC1CN2CCC1CC2 (racemic) have IC50 under 8 nM?
Out: Not fulfilled

In: hey, is IC50 for FC(F)(F)c1cccc(CCOc2nsnc2O[C@@H]2CN3CCC[C@H]2C3)c1 (relative stereo) lower than 8 nM or not?
Out: Not fulfilled

In: Regarding C1C[C@H]2CN(C1)C[C@H]2Oc1nsnc1OCC1CC1 (relative stereo) , kindly confirm whether its IC50 is beneath 8 nM.
Out: Fulfilled
